Ki listing for selected compounds.
Target: Human Recombinant Matriptase 2 (Homo sapiens, UniProt Q8IU80)
Sequence (Q8IU80 1-811): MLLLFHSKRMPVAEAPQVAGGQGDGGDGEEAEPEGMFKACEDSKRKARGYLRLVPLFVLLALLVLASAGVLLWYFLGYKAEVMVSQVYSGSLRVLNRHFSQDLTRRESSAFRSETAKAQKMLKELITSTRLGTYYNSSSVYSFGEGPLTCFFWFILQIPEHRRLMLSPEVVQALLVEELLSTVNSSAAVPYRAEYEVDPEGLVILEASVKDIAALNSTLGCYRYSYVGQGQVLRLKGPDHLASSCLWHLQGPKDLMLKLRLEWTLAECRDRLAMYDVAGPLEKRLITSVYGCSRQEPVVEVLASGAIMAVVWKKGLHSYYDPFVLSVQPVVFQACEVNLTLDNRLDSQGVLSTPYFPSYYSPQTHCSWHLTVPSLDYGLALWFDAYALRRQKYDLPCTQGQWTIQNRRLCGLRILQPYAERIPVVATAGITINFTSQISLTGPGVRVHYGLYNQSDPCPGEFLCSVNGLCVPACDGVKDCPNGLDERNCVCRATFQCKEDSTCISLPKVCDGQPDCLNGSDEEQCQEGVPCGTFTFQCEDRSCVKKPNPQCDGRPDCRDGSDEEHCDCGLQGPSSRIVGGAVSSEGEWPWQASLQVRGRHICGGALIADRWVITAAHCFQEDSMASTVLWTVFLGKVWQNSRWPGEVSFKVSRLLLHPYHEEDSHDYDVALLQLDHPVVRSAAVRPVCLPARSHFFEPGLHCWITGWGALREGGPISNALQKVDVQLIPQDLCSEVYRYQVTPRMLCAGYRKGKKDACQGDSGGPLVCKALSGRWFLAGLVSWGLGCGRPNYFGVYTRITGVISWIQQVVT
Test: Matriptase 2 fluorescence-based inhibition assay (Boc-Gln-Ala-Arg-AMC substrate)
Settings: Ki derived from measured IC50 using Cheng-Prusoff equation; 30 min preincubation, 100 μM substrate, 25° C., pH 7.5; read-out: Mat-2 Ki

>>> observed("C[C@H](O)[C@H](NC(=O)[C@H](Cc1cscn1)NC(=O)OCc1ccccc1)C(=O)N[C@@H](CCCNC(=N)N)C(=O)C(=O)NC(C)(C)C")
"≤ 100 nM"

q: Consider the compound C[C@@H](O)[C@H](NC(=O)C(CCc1ccccc1)NC(=O)OCc1ccccc1)C(=O)NC(CCCS(C)(=N)=O)C(=O)C(=O)NC(C)(C)C (stereo partly drawn) and give its recorded Ki.
a: ≥ 1000 nM

q: Consider the compound CO[C@@H]1CC(C(=O)N[C@@H](CCCNC(=N)N)C(=O)C(=O)NC(C)(C)C)N(C(=O)[C@H](Cc2cscn2)NC(=O)OCc2ccccc2)C1 (stereo partly drawn) and give its recorded Ki.
a: ≤ 100 nM
